test target: RINT1 RAD50-interacting protein 1 (Homo sapiens, UniProt Q6NUQ1)
Construct: isoTOP-ABPP experiments performed in cell lysates (in vitro); endogenous in cells; host or cells: soluble proteome of human cancer cell lines (MDA-MB-231; Ramos and Jurkat also prepared)
Sequence (Q6NUQ1 whole entry): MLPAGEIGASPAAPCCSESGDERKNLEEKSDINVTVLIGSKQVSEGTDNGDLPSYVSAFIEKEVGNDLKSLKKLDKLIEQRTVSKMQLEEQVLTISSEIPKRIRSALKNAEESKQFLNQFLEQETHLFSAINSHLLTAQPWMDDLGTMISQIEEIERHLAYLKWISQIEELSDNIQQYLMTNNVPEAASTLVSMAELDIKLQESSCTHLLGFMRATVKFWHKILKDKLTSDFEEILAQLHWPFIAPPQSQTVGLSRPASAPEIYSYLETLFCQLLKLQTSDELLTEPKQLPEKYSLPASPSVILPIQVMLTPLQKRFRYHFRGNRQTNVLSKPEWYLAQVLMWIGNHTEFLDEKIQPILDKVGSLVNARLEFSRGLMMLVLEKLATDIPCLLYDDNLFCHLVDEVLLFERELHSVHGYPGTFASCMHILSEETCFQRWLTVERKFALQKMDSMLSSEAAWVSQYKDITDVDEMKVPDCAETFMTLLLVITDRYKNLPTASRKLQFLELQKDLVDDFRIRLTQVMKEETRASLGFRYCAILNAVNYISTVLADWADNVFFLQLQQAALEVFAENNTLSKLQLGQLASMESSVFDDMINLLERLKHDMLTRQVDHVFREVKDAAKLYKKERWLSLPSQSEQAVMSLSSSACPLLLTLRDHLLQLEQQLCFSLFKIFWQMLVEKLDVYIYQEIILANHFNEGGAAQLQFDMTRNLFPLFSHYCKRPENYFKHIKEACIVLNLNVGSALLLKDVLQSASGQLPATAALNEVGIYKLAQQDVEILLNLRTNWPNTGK
measurement protocol: competitive isoTOP-ABPP
Assay type: binding
conditions used: 50 uM_231_sol_in vitro
Would you mind telling me the reported isoTOP-ABPP ratio, lysine Q6NUQ1_K771 of each entry?
Reply briefly: the number, and no unit.

What does the record list as isoTOP-ABPP ratio, lysine Q6NUQ1_K771 for "O=C(Oc1c(F)c(F)c(C(F)(F)F)c(F)c1F)c1cc(C(F)(F)F)cc(C(F)(F)F)c1" ?
1.2

What does the record list as isoTOP-ABPP ratio, lysine Q6NUQ1_K771 for "O=C(CCc1ccc2c(c1)OCO2)Oc1ccc([N+](=O)[O-])cc1[N+](=O)[O-]" ?
1.0

What does the record list as isoTOP-ABPP ratio, lysine Q6NUQ1_K771 for NC(=O)c1cc(C(F)(F)F)cc(C(F)(F)F)c1 [fragment 51, reference compound] ?
0.9

What does the record list as isoTOP-ABPP ratio, lysine Q6NUQ1_K771 for "O=C(ON1C(=O)CCC1=O)c1cc(C(F)(F)F)cc(C(F)(F)F)c1" ?
20.0

What does the record list as isoTOP-ABPP ratio, lysine Q6NUQ1_K771 for N#Cc1ccc(C(=O)Oc2ccc([N+](=O)[O-])cc2[N+](=O)[O-])cc1 [fragment 44, 2,4-Dinitrophenyl 4-cyanobenzoate] ?
1.7

What does the record list as isoTOP-ABPP ratio, lysine Q6NUQ1_K771 for "O=C(Oc1c(F)c(F)cc(F)c1F)c1cc(C(F)(F)F)cc(C(F)(F)F)c1" ?
4.8

----------
test target: LMNA Prelamin-A/C (Homo sapiens, UniProt P02545)
Construct: isoTOP-ABPP experiments performed in cell lysates (in vitro); endogenous in cells; host or cells: MDA-MB-231 soluble lysate
Sequence (P02545 whole entry): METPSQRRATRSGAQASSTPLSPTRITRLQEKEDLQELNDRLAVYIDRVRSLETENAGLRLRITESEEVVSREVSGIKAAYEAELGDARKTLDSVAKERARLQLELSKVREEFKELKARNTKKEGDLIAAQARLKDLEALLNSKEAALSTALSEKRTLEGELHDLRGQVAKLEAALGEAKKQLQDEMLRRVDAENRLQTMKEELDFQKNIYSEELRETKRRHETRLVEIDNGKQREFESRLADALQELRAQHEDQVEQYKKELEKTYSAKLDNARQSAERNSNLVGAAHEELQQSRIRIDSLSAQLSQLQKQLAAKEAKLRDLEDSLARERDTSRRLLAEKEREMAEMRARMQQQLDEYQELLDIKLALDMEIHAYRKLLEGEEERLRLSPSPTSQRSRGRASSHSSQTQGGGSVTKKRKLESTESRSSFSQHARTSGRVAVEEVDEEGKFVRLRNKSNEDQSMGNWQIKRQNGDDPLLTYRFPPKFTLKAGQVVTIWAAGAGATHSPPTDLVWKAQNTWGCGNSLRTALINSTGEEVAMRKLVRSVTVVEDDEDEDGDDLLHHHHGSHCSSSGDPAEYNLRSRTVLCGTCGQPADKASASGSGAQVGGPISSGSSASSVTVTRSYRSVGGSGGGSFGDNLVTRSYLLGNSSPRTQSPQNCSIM
measurement protocol: competitive isoTOP-ABPP
Type: binding
conditions used: 50 uM_231_sol_in vitro
Would you mind telling me the reported isoTOP-ABPP ratio, lysine P02545_K135 of each entry?
Reply briefly: the number, and no unit.

What does the record list as isoTOP-ABPP ratio, lysine P02545_K135 for "O=C(ON1C(=O)CCC1=O)c1cc(C(F)(F)F)cc(C(F)(F)F)c1" ?
0.7

What does the record list as isoTOP-ABPP ratio, lysine P02545_K135 for N#Cc1ccc(C(=O)Oc2ccc([N+](=O)[O-])cc2[N+](=O)[O-])cc1 [fragment 44, 2,4-Dinitrophenyl 4-cyanobenzoate] ?
0.9

What does the record list as isoTOP-ABPP ratio, lysine P02545_K135 for "O=C(Oc1c(F)c(F)c(C(F)(F)F)c(F)c1F)c1cc(C(F)(F)F)cc(C(F)(F)F)c1" ?
1.2

What does the record list as isoTOP-ABPP ratio, lysine P02545_K135 for "O=C(Oc1c(F)c(F)cc(F)c1F)c1cc(C(F)(F)F)cc(C(F)(F)F)c1" ?
1.0

What does the record list as isoTOP-ABPP ratio, lysine P02545_K135 for NC(=O)c1cc(C(F)(F)F)cc(C(F)(F)F)c1 [fragment 51, reference compound] ?
1.0

What does the record list as isoTOP-ABPP ratio, lysine P02545_K135 for "O=C(CCc1ccc2c(c1)OCO2)Oc1ccc([N+](=O)[O-])cc1[N+](=O)[O-]" ?
0.9
